- subject_of_test: proton pump (H+/K+-ATPase) (Sus scrofa)
- Construct: Gastric vesicles were prepared from hog stomach via centrifugal separation
- protocol_notes: Measurement of inhibitory effects on proton pump (H+/K+-ATPase) activities
- condition_details: hog gastric vesicles, K+-specific H+/K+-ATPase activity, Tris-HCl buffer pH 7.4, 37° C. for 40 minutes, malachite green Pi readout
Counter-ions that a name gives are not always drawn.
pIC50 for assorted compounds
Note on pIC50: it is the negative log10 of concentration, concentration in mol/L.

Worked cases, answers included:
# compound, pIC50
rows = [
    ("CNCc1cn(S(=O)(=O)c2cccc(OC(F)F)c2)c2cc(Cc3ccc(OC)nc3Cl)ccc12 [Example 296]", 6.03),
    ("CNCc1cn(S(=O)(=O)c2cccnc2)c2cc(Nc3ccc(OC)cc3OC(F)(F)F)ccc12 [Example 50, hydrochloride]", 5.86),
    ("CNCc1cn(S(=O)(=O)c2cccnc2)c2cc(Cc3ccc(OC)nc3Cl)ccc12 [Example 291, hydrochloride]", 6.18),
    ("CNCc1cn(S(=O)(=O)c2cccnc2)c2cc(Nc3ccc(Cl)cc3)ccc12 [Example 11, hydrochloride]", 5.99),
    ("CNCc1cn(S(=O)(=O)c2cccc(Cl)c2)c2cc(Nc3ccc(Cl)cc3F)ccc12 [Example 150, hydrochloride]", 6.24),
    ("CNCc1cn(S(=O)(=O)c2cccnc2)c2cc(Nc3ccc4ncccc4c3)ccc12 [Example 135, hydrochloride]", 5.52),
]

Q. Recall the reported pIC50 of CNCc1cn(S(=O)(=O)c2ccc(OC(F)F)cc2)c2cc(Cc3ccc(OC)nc3Cl)ccc12 [Example 298] on proton pump (H+/K+-ATPase) (Sus scrofa) and write it down.
A. 5.44

###

- subject_of_test: proton pump (H+/K+-ATPase) (Sus scrofa)
- Construct: Gastric vesicles were prepared from hog stomach via centrifugal separation
- protocol_notes: Measurement of inhibitory effects on proton pump (H+/K+-ATPase) activities
- condition_details: hog gastric vesicles, K+-specific H+/K+-ATPase activity, Tris-HCl buffer pH 7.4, 37° C. for 40 minutes, malachite green Pi readout
Structures can show the parent of a compound that is named as a salt.
property: IC50 (nM)
Report the value in nM with no unit label.

// known answers, use as guide
# compound, IC50 [nM]
data = [
    ("CNCc1cn(S(=O)(=O)c2cccc(C(F)(F)F)c2)c2cc(Cc3ccc(C)c(F)c3F)ccc12", 1450),
    ("CNCc1cn(S(=O)(=O)c2ccccc2F)c2cc(Nc3ccc(C)cc3F)ccc12 [Example 224, hydrochloride]", 3300),
    ("COc1ccc(Nc2ccc3c(CN(C)C)cn(S(=O)(=O)c4cccc(C(F)(F)F)c4)c3c2)c(Cl)n1", 1240),
]

Proceeding to the next compound to report its IC50.
Q. Provide IC50 value for the following compound: CNCc1cn(S(=O)(=O)c2cncc(F)c2)c2cc(Nc3ccc(F)cc3C)cnc12 [Example 351, hydrochloride]
A. 350

###

- subject_of_test: proton pump (H+/K+-ATPase) (Sus scrofa, UniProt P19156)
- Construct: Gastric vesicles were prepared from hog stomach via centrifugal separation
- Sequence (P19156 whole entry): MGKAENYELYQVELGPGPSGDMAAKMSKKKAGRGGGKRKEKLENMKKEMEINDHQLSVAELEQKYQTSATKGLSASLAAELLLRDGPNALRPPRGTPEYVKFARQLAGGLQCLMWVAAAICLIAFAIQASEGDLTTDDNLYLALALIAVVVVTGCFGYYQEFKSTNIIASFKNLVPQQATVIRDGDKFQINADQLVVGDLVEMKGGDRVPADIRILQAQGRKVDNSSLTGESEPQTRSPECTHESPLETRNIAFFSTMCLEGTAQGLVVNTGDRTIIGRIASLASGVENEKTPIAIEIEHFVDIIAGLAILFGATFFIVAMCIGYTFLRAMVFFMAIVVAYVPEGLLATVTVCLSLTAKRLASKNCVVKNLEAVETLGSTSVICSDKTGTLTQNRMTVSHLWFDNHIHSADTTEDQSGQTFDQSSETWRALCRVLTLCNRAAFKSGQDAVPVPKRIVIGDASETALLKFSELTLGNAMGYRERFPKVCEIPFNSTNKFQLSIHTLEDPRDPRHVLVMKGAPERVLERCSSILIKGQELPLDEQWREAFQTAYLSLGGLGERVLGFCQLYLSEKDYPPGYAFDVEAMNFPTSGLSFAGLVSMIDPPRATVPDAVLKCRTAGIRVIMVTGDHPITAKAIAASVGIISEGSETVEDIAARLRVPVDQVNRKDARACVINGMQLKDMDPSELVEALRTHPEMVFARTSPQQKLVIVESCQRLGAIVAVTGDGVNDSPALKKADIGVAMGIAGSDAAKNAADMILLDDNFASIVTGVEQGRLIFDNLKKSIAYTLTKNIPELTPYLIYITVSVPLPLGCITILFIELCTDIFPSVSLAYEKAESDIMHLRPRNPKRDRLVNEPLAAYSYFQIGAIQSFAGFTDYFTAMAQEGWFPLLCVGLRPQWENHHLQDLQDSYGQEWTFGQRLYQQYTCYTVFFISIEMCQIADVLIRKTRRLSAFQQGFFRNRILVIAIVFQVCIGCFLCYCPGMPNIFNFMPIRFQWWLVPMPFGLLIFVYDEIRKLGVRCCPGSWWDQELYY
- Sequence (P18434 whole entry partner): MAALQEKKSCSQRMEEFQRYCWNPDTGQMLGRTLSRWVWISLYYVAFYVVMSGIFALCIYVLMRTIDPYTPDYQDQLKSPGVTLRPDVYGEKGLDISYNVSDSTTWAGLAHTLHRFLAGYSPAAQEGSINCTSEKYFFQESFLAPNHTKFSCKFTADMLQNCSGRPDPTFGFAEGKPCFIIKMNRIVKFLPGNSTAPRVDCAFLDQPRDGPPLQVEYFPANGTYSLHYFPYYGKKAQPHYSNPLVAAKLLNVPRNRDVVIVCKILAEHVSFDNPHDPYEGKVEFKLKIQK
- protocol_notes: Measurement of inhibitory effects on proton pump (H+/K+-ATPase) activities
- condition_details: hog gastric vesicles, K+-specific H+/K+-ATPase activity, Tris-HCl buffer pH 7.4, 37° C. for 40 minutes, malachite green Pi readout
Where a name gives a salt, the structure may show the parent alone.
Listing of recorded pIC50 by entry.
Note on pIC50: it is the negative log10 of concentration, concentration in mol/L.

The following compounds have reported results that may help.
# compound, pIC50
data = [
    ("CCOc1cc(F)c(Nc2ccc3c(CNC)cn(S(=O)(=O)c4cccnc4)c3c2)c(F)c1 [Example 89, hydrochloride]", 6.06),
    ("CNCc1cn(S(=O)(=O)c2cccc(Cl)c2)c2cc(Nc3ccc(Cl)nc3Cl)ccc12 [Example 159, hydrochloride]", 6.47),
    ("CNCc1cn(S(=O)(=O)c2cccc(OC(F)(F)F)c2)c2cc(Nc3ccc(C)c(F)c3F)ccc12 [Example 203, hydrochloride]", 6.35),
]

Continue with the compound presented below.
Q. Please report the measured pIC50 for CNCc1cn(S(=O)(=O)c2cccnc2)c2cc(Nc3c(Cl)cc(F)cc3Cl)ccc12 [Example 84, hydrochloride]
A. 6.28

Sourced from patent US9676714B2
